Hi there, I'd appreciate the recorded Mean in M1 for every entry that follows.
# measured on: T1, human PD-L1 on hPD-L1/CHO-K1 overexpressing cells (human, UniProt Q9NZQ7 19-290)
# T1 construct: whole, on cells; also called human PD-L1-expressing cells
# protocol notes: flow cytometry on hPD-L1/CHO-K1 cells (sheet label hPD-1/CHO-K1)
API note: the answer field is a bare number with no unit suffix.

q: Which value of Mean in M1 has been reported for ME4.A11 anti-PD-L1 antibody (IgG form) (antibody, V domains shown) VH: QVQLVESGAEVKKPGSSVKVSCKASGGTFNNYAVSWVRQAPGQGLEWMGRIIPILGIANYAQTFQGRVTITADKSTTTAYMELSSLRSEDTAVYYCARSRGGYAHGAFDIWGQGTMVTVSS VL: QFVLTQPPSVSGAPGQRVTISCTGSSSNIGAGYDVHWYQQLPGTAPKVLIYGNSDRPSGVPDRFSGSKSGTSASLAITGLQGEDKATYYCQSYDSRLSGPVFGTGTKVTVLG in the records?
a: 21

q: Which value of Mean in M1 has been reported for ME4 anti-PD-L1 antibody (IgG form) (antibody, V domains shown, Converted to IgG with the vectors pIgGHD-6A6Hvy and pIgGLD-6A6Lgt; Expressed in Expi293F cells) VH: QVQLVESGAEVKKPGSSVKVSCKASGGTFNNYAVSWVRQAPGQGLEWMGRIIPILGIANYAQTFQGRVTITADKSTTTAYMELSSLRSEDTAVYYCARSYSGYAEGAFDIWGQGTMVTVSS VL: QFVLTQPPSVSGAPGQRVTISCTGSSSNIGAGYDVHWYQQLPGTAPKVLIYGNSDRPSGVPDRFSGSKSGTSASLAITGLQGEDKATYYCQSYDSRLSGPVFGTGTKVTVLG in the records?
a: 38.3

q: Which value of Mean in M1 has been reported for ME4.A12 anti-PD-L1 antibody (IgG form) (antibody, V domains shown) VH: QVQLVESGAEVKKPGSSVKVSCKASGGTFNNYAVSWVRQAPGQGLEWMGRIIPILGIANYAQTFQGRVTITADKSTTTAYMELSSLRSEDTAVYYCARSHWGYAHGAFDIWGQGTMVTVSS VL: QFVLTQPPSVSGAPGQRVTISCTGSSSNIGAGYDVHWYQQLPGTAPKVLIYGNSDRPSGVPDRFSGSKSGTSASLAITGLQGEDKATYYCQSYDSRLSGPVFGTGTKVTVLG in the records?
a: 19.7

q: Which value of Mean in M1 has been reported for ME4.A2 anti-PD-L1 antibody (IgG form) (antibody, V domains shown) VH: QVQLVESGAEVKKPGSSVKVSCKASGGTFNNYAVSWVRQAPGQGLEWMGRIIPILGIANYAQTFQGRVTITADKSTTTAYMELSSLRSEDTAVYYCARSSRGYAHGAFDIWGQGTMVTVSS VL: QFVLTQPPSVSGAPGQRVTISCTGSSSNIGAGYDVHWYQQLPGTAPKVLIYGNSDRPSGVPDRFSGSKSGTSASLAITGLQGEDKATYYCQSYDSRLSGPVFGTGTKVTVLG in the records?
a: 33

q: Which value of Mean in M1 has been reported for ME4.B10 anti-PD-L1 antibody (IgG form) (antibody, V domains shown) VH: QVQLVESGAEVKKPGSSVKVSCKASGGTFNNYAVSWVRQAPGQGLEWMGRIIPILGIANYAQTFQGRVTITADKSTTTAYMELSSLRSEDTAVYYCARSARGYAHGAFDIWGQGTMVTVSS VL: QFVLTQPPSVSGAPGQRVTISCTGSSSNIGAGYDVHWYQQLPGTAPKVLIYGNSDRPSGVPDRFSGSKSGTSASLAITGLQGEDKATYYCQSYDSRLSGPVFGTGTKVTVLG in the records?
a: 21

q: Which value of Mean in M1 has been reported for ME4.B12 anti-PD-L1 antibody (IgG form) (antibody, V domains shown) VH: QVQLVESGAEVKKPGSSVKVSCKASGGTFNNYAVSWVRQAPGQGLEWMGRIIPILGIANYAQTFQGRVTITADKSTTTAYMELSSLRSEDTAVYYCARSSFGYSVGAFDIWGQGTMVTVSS VL: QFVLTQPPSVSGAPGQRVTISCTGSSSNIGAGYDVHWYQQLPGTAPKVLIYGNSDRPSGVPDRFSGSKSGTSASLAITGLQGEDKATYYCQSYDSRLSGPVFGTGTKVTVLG in the records?
a: 33.8
